# run description: melting temperature; fluorescence melt of hairpins on a sequencing array, two-state fit, raised by 9.35 °C to match UV melts
# stated conditions: sodium 0.088 M
endpoint: Tm (°C)
Write down the numeric answer in °C and omit the unit.

Incoming: Which Tm is reported for this sequence? GCCCGACGAAAGTCGGC (((.(((....))))))
Outgoing: 61.4

Incoming: Could you share which Tm value was measured for ATCCGGAAACGGAT (((((....))))) ?
Outgoing: 52.8

Incoming: Field request: Tm | item: GATCGGACGGCCGATC ((((((....))))))
Outgoing: 59.3

Incoming: GET /values?readout=Tm&item= GATCTGCTTCCAGATC ((((((....))))))
Outgoing: 48.5

Incoming: I am curious: what Tm value has been reported for GTGGGCGCGAAAGCGCAC (((..(((....)))))) ?
Outgoing: 67.9

----------
# run description: folding enthalpy; higher = less favourable; fluorescence melt of hairpins on a sequencing array, two-state fit
# stated conditions: sodium 0.088 M
Think of -20 kcal/mol as a floor: if folding enthalpy stands on it or above, it is criterion met; beneath it, criterion not met.

Incoming: Decide: is the reported value of folding enthalpy for GGAAGCGAAAGCTCCTCC ((((((....)))..))) equal to or greater than -20 kcal/mol?
Outgoing: criterion met

Incoming: Is folding enthalpy for GACGGTACGAAAGTAGTC (((..(((....)))))) at or above -20 kcal/mol?
Outgoing: criterion met

Incoming: Can GGGTGAACGAAAGTTCCC (((..(((....)))))) be said to have folding enthalpy at or above -20 kcal/mol?
Outgoing: criterion met

Incoming: Could you verify whether the entry GGCGACGAAAGTCAGCC ((((((....))).))) shows folding enthalpy of no less than -20 kcal/mol?
Outgoing: criterion not met

Incoming: Kindly determine if folding enthalpy recorded for GATCCCAACAGGGATC ((((((....)))))) is above or exactly -20 kcal/mol.
Outgoing: criterion not met

Incoming: Quick check, folding enthalpy >= -20 kcal/mol? GCCTTGCGAAAGCAACGC ((.((((....)))).))
Outgoing: criterion met

Incoming: Reported folding enthalpy reaches at least -20 kcal/mol for GTGAGTCCGAAAGGACAC (((..(((....)))))) ?
Outgoing: criterion met

Incoming: Check the entry GAGCTCGGAAACGAACCC (.(.(((....))).).) : does folding enthalpy equal or exceed -20 kcal/mol?
Outgoing: criterion met

Incoming: Quick check, folding enthalpy >= -20 kcal/mol? GATCAATACTTTGATC ((((((....))))))
Outgoing: criterion not met

Incoming: Reported folding enthalpy reaches at least -20 kcal/mol for GGCTTGCGAAAGCAGGCC (((.(((....))).))) ?
Outgoing: criterion not met

Incoming: Tell me whether folding enthalpy is at least -20 kcal/mol here: GTCACACGAAAGTGGAC (((.(((....))))))
Outgoing: criterion met

Incoming: Evaluate GACGGTGGAAACACCACC (..((((....))))..) : folding enthalpy at minimum -20 kcal/mol?
Outgoing: criterion met

Incoming: Please indicate if the recorded folding enthalpy for GTTTTAGGAAACTAGAAC (((.(((....))).))) meets or exceeds -20 kcal/mol.
Outgoing: criterion met

Incoming: I'd appreciate it if you could say whether GAGATGGGAAACCATCTC (((((((....))))))) has folding enthalpy at least equal to -20 kcal/mol.
Outgoing: criterion not met

Incoming: Tell me whether folding enthalpy is at least -20 kcal/mol here: CGTTCGGAAACGAATACG ((((((....)))..)))
Outgoing: criterion met

Incoming: Given CGTAGGCGGAAACGCACG (((..(((....)))))) , state whether its folding enthalpy is at least -20 kcal/mol.
Outgoing: criterion met

Incoming: # check: folding enthalpy of GATCCACCATGGATC ((((((...)))))) is greater than or equal to -20 kcal/mol
Outgoing: criterion not met

Incoming: Hi team, for GCGTCTGACGC ((((...)))) , is the recorded folding enthalpy at or above -20 kcal/mol?
Outgoing: criterion not met

Incoming: Has GGCTCCGAAAGGACAGCC ((((((....)))..))) a recorded folding enthalpy greater than or equal to -20 kcal/mol?
Outgoing: criterion not met

Incoming: Could you tell me if the measured folding enthalpy of GGTGACGAAAGTCCGACC ((((((....)))..))) reaches -20 kcal/mol or more?
Outgoing: criterion met

Incoming: Is the recorded value of folding enthalpy equal to or greater than -20 kcal/mol for this sequence? GATCCTGAACAGGATC ((((((....))))))
Outgoing: criterion not met

Incoming: Hi, just wondering whether GATCACAGAAGTGATC ((((((....)))))) shows folding enthalpy of -20 kcal/mol or higher.
Outgoing: criterion not met

----------
# run description: folding enthalpy; higher = less favourable; fluorescence melt of hairpins on a sequencing array, two-state fit
# stated conditions: sodium 0.088 M
Mark no (0) for folding enthalpy values under -20 kcal/mol, and yes (1) for everything at or above.

Incoming: // inclusive: folding enthalpy at least -20 kcal/mol? input: GATCGAGACGTCGATC ((((((....))))))
Outgoing: no (0)

Incoming: I'd appreciate it if you could say whether CTAGGGAAACCTAG (((((....))))) has folding enthalpy at least equal to -20 kcal/mol.
Outgoing: yes (1)

Incoming: I'd appreciate it if you could say whether GAGGACGAAAGTCGTCTC ((((((....)))..))) has folding enthalpy at least equal to -20 kcal/mol.
Outgoing: no (0)

Incoming: Exam item: decide whether the reported folding enthalpy for GACCGGCGAAAGCCCGTC (((.(((....))).))) is at least -20 kcal/mol.
Outgoing: yes (1)

Incoming: Is the recorded value of folding enthalpy equal to or greater than -20 kcal/mol for this sequence? CGTCCGGAAACGGCACG ((((((....))).)))
Outgoing: no (0)

Incoming: Quick check: does GGCTCACGAAAGTGCGCC (((.(((....))).))) have folding enthalpy greater than or equal to -20 kcal/mol?
Outgoing: no (0)

Incoming: State whether the measured folding enthalpy reaches -20 kcal/mol, counting equality as reaching it, for GGCGTCCGAAAGGAGCC (((.(((....))))))
Outgoing: no (0)

Incoming: I'd appreciate it if you could say whether GGGCCCGAAAGGGAACCC ((((((....)))..))) has folding enthalpy at least equal to -20 kcal/mol.
Outgoing: yes (1)

Incoming: Does the sequence TGCTGGAAACAGCA (((((....))))) have recorded folding enthalpy that is -20 kcal/mol or more?
Outgoing: yes (1)

Incoming: Can GGGGTCGGAAACGGCCCC ((((.((....)).)))) be said to have folding enthalpy at or above -20 kcal/mol?
Outgoing: no (0)

Incoming: Determine whether this sequence has folding enthalpy no lower than -20 kcal/mol: GGGAAGCGAAAGCTCCCC (((.(((....))).)))
Outgoing: no (0)

Incoming: Quick check: does CGATACGGAAACGTTCG (((.(((....)))))) have folding enthalpy greater than or equal to -20 kcal/mol?
Outgoing: no (0)

Incoming: Exam item: decide whether the reported folding enthalpy for GATCTACGCATAGATC ((((((....)))))) is at least -20 kcal/mol.
Outgoing: no (0)

Incoming: Does GCGTACGAACGC ((((....)))) have a reported folding enthalpy of at least -20 kcal/mol?
Outgoing: no (0)

Incoming: Check the entry GCCTACGAAAGTAAGGGC ((((((....)))..))) : does folding enthalpy equal or exceed -20 kcal/mol?
Outgoing: no (0)

Incoming: Decide: is the reported value of folding enthalpy for GATCATCGGGATGATC ((((((....)))))) equal to or greater than -20 kcal/mol?
Outgoing: no (0)

Incoming: Is reported folding enthalpy greater than or equal to -20 kcal/mol here: GCACTCGGAAACGAACGC ((..(((....)))..))
Outgoing: yes (1)

Incoming: Say whether CGCGCGGAAACGCTTGCG ((((((....)))..))) shows folding enthalpy of -20 kcal/mol or more.
Outgoing: no (0)

Incoming: Does GCACGAGGAAACTCACGC ((..(((....)))..)) have a reported folding enthalpy of at least -20 kcal/mol?
Outgoing: no (0)

Incoming: Can GACCGGGCGAAAGCCGTC (((..(((....)))))) be said to have folding enthalpy at or above -20 kcal/mol?
Outgoing: yes (1)

Incoming: I'd appreciate it if you could say whether GATCATACTATGATC ((((((...)))))) has folding enthalpy at least equal to -20 kcal/mol.
Outgoing: no (0)

Incoming: Item GATTACCGAAAGGTTATC (((.(((....))).))) with folding enthalpy of -20 kcal/mol or above?
Outgoing: no (0)

Incoming: Determine whether measured folding enthalpy meets or exceeds -20 kcal/mol for GATCTTCGCAAAGATC ((((((....))))))
Outgoing: no (0)

Incoming: Could you verify whether the entry GCCTGGGGAAACTCGGGC (((.(.(....).).))) shows folding enthalpy of no less than -20 kcal/mol?
Outgoing: no (0)

Incoming: Item GATGTTGGAAACAATGTC ((..(((....)))..)) with folding enthalpy of -20 kcal/mol or above?
Outgoing: yes (1)

Incoming: Decide: folding enthalpy of GCGCATACGAAAGTACGC (((..(((....)))))) >= -20 kcal/mol?
Outgoing: no (0)

Incoming: Is folding enthalpy at least -20 kcal/mol? Consider GTGCCCCGAAAGGGACAC (((.(((....))).)))
Outgoing: no (0)

Incoming: Answer whether folding enthalpy of GCATCTGCGAAAGCATGC (((..(((....)))))) is greater than or equal to -20 kcal/mol.
Outgoing: yes (1)

Incoming: Decide: folding enthalpy of GTGTTCGAAAGAAGGCAC ((((((....)))..))) >= -20 kcal/mol?
Outgoing: no (0)

Incoming: Is folding enthalpy for GTCAAGGGAAACCTTGAC (((((((....))))))) at or above -20 kcal/mol?
Outgoing: no (0)

Incoming: Determine whether this sequence has folding enthalpy no lower than -20 kcal/mol: GGGTAGCGAAAGCTCCC (((.(((....))))))
Outgoing: no (0)

Incoming: Is folding enthalpy for GTACGCGGAAACACGCAC ((.((.(....).)).)) at or above -20 kcal/mol?
Outgoing: yes (1)

Incoming: Reported folding enthalpy at or above -20 kcal/mol? GCTTGCGAAAGCAGCAGC ((((((....)))..)))
Outgoing: yes (1)

Incoming: Dear colleague, could you confirm whether GCGAAGCGAAAGCTGCGC (((.(((....))).))) has folding enthalpy at or above -20 kcal/mol?
Outgoing: no (0)

Incoming: Is the recorded value of folding enthalpy equal to or greater than -20 kcal/mol for this sequence? GATCTAACGCTAGATC ((((((....))))))
Outgoing: no (0)

Incoming: Can GACTACGAAAGTACTGTC ((((((....)))..))) be said to have folding enthalpy at or above -20 kcal/mol?
Outgoing: yes (1)

Incoming: Can GTGCGTGGAAACACACAC (((.(((....))).))) be said to have folding enthalpy at or above -20 kcal/mol?
Outgoing: no (0)

Incoming: Could you tell me if the measured folding enthalpy of GGGTCTACGAAAGTACCC (((..(((....)))))) reaches -20 kcal/mol or more?
Outgoing: no (0)

Incoming: Is the recorded value of folding enthalpy equal to or greater than -20 kcal/mol for this sequence? GATCCCAGATGGGATC ((((((....))))))
Outgoing: no (0)

Incoming: Does GTCCCCCGAAAGGGAGAC (((.(((....))).))) have a reported folding enthalpy of at least -20 kcal/mol?
Outgoing: no (0)

Incoming: Is folding enthalpy at least -20 kcal/mol? Consider GATCTGATACAGATC ((((((...))))))
Outgoing: no (0)

Incoming: Say whether GGCTAAGGAAACTCAGCC ((((.((....)).)))) shows folding enthalpy of -20 kcal/mol or more.
Outgoing: no (0)

Incoming: Is the recorded value of folding enthalpy equal to or greater than -20 kcal/mol for this sequence? GATCGGCGACCCGATC ((((((....))))))
Outgoing: no (0)

Incoming: Given the entry GTAACAGGAAACTGTTAC (((((((....))))))) , answer whether its folding enthalpy meets or surpasses -20 kcal/mol.
Outgoing: no (0)

Incoming: Could you please find out whether GTAGCTGGAAACGGCTAC (((((.(....).))))) has folding enthalpy that meets -20 kcal/mol or exceeds it?
Outgoing: no (0)
